assay: qHTS of TDP-43 Inhibitors; details: TDP-43 expressing yeast growth rescue, BacTiter-Glo, 24 h; series mostly up to 46.1 µM; note: nearly all actives have a fitted effect of over 50% in size
Hit rate of the full screen: of about 410,000 compounds, about 7,200 (1.8%) were called active. About 7% were inconclusive and are not listed. Calls come from the whole dose curve; as a rule, active = well fitted activation curve with a large enough effect; inconclusive = small, poorly fitted or top-dose-only effect, or another doubt; inactive = no such curve, though single readings can be large or run the other way. The sample as a whole holds a higher share of actives than the screen did.
Labels: active, inactive

>>> class_label("Cc1ccc(N2CC(c3nnc(Cc4ccccc4Cl)o3)CC2=O)cc1 (configuration not stated)")
"inactive"
>>> class_label("CC(=O)Nc1ccc(NC(=O)COc2ccccc2C(=O)Nc2cccc(Cl)c2Cl)cc1")
"inactive"
>>> class_label("COC(=O)c1ccccc1NC(=O)c1ccc(COc2ccccc2Cl)o1")
"inactive"
>>> class_label("COc1ccccc1N1CCN(C(=O)CSc2ncnc3c2cnn3-c2ccc(C)c(C)c2)CC1")
"inactive"
>>> class_label("CCOC(=O)c1ccc(N2C(=O)CC(N3CCN(C(=O)c4ccccc4)CC3)C2=O)cc1 (configuration not stated)")
"inactive"
>>> class_label("COc1ccc(C2=NN(C(=O)CSc3nnnn3C)C(c3ccco3)C2)cc1 (configuration not stated)")
"inactive"
>>> class_label("O=C(NCc1ccc(Cl)cc1)C1CCN(S(=O)(=O)c2cccs2)CC1")
"inactive"
>>> class_label("CCC(=O)c1cc(F)ccc1OCC(=O)Nc1ccc2c(c1)OCCO2")
"inactive"
>>> class_label("Cc1cccc(CNC(=O)c2sc(=O)n(Cc3ccccc3C)c2C)c1")
"inactive"
>>> class_label("Cc1ccc(-n2ncc3c(Nc4cccc(C(=O)O)c4)ncnc32)cc1")
"inactive"
>>> class_label("COc1ccc(SCc2cc(=O)c3ccc(C)c(C)c3[nH]2)cc1")
"inactive"
>>> class_label("COc1ccccc1CNCc1ccc(C(=O)O)s1")
"inactive"
>>> class_label("CCCN1CCN(CCCNC(=O)c2cnn(-c3ccc(C)cc3)c2-n2cccc2)CC1")
"inactive"
>>> class_label("CCOC(=O)c1ccc(NC(=O)CC2C(=O)N(c3cccc(OC)c3)C(=O)N2C2CCCCC2)cc1 (configuration not stated)")
"inactive"
>>> class_label("O=C(COc1ccc(F)cc1Br)NCC1COc2ccccc2O1 (configuration not stated)")
"active"
>>> class_label("CCOc1cc(/C=N/O)cc(Br)c1OC")
"active"
>>> class_label("CCN(C(=O)Cn1c(=O)nc(-c2ccccc2)c2cc(Cl)ccc21)c1cccc(C)c1")
"inactive"
>>> class_label("O=C(COC(=O)COc1cccc(F)c1)NCC1CCCCC1")
"inactive"
>>> class_label("CCOc1ccc(OCC)c(Nc2nc3ccccc3n3nnnc23)c1")
"inactive"
>>> class_label("CCOC(=O)c1cc2c(ccn2C)n1CC(=O)N1CCC(C)CC1")
"active"
>>> class_label("CCOc1cc(/C=N/n2cnnc2)c(Br)cc1O")
"inactive"
>>> class_label("COc1ccc2c(c1)c(N1CCCC1=O)c(C(=O)Nc1ccccc1C(F)(F)F)n2C")
"inactive"

Numbers sourced from PubChem BioAssay AID652104.
